Tested on: A549 (non-small cell lung) human cancer cell line
experiment_description: resazurin-based cytotoxicity assay, A549
Assay type: cell-based
experimental_setup: A549 (non-small cell lung), 72 h incubation, mean ± SD of triplicate wells
quantity_name: IC50

>>> reading("COC(=O)/C(C#N)=C/c1c(N2CCCCC2)c2ccccc2oc1=O")
"> 80 µM"
>>> reading("COC(=O)/C(C#N)=C/c1c(N2CCC(O)CC2)c2ccccc2oc1=O")
"> 80 µM"
>>> reading("COC(=O)/C(C#N)=C/c1c(OC)c2ccccc2oc1=O")
"> 80 µM"
>>> reading("COC(=O)/C(C#N)=C/c1c(N2CCCC2)c2ccccc2oc1=O")
"> 80 µM"
>>> reading("N#CC(C#N)=Cc1c(N2CCC(O)CC2)c2ccccc2oc1=O")
"> 80 µM"
>>> reading("O=c1oc2ccccc2c(N2CCCC2)c1[N+](=O)[O-]")
"> 80 µM"
>>> reading("N#CC(C#N)=C(N)/C(C#N)=C/c1c(N2CCCC2)c2ccccc2oc1=O")
"> 80 µM"
>>> reading("COc1c(C=O)c(=O)oc2ccccc12")
"> 80 µM"
>>> reading("O=c1oc2ccccc2c(N2CCOCC2)c1[N+](=O)[O-]")
"19.8 µM"

* * *

assayed_system: VEGFR-2 (KDR) (Homo sapiens, UniProt P35968)
Construct: purchased 40325
Sequence (P35968 20-1356): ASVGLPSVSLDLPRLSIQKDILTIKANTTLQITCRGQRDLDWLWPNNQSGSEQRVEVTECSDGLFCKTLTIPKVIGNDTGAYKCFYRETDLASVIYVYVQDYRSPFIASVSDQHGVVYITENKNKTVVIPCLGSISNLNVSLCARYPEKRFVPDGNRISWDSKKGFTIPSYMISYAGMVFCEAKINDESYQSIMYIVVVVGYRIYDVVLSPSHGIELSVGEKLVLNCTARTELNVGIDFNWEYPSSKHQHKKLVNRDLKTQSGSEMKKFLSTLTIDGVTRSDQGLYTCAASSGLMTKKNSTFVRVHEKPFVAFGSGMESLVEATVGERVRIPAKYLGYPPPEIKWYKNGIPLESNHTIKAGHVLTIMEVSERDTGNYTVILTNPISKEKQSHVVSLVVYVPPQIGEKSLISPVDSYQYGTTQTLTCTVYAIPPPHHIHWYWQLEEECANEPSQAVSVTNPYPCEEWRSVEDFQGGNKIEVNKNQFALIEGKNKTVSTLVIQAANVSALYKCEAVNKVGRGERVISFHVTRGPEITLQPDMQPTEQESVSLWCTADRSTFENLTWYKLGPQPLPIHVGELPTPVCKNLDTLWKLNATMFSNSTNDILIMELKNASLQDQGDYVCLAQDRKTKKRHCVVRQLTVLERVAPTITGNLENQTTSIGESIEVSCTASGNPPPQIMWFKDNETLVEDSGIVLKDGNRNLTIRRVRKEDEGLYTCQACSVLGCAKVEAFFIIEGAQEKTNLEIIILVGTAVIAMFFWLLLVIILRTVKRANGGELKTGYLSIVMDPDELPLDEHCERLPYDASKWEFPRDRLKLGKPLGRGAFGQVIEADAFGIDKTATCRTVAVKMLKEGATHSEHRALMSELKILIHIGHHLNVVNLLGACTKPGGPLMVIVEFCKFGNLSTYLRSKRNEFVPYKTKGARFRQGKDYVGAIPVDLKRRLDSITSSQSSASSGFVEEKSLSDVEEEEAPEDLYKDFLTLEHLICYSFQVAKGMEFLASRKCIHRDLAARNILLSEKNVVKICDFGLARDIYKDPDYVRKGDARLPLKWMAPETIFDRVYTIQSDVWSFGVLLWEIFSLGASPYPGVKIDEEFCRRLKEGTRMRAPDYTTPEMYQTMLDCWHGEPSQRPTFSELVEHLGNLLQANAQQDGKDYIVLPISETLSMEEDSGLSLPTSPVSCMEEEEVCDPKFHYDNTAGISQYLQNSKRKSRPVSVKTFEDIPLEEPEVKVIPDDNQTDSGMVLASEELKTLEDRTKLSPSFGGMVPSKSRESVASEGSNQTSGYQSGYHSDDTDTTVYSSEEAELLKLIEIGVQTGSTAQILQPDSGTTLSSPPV
experiment_description: VEGFR-2 (KDR) Kinase Assay Kit, luminescence
Format: biochemical
experimental_setup: IC50 relative to the standard sorafenib
quantity_name: VEGFR-2 Fold to sorafenib

>>> reading("O=Cc1c(NCC2CCNCC2)c2ccccc2oc1=O [Compound 5e]")
"2.8 fold"
>>> reading("N#CC(C#N)=Cc1c(NCC2CCNCC2)c2ccccc2oc1=O [Compound 8e]")
"0.8 fold"
>>> reading("COC(=O)/C(C#N)=C/c1c(NCC2CCNCC2)c2ccccc2oc1=O [Compound 4e]")
"1.2 fold"
>>> reading("O=c1oc2ccccc2c(N2CCOCC2)c1[N+](=O)[O-] [Compound 9d, 4-Morpholino-3-nitro-2H-chromen-2-one]")
"0.8 fold"

* * *

Listing: melting point of selected compounds
quantity_name: melting point

>>> reading("O=Cc1c(NCC2CCNCC2)c2ccccc2oc1=O")
"208 to 210 °C"
>>> reading("N#CC(C#N)=Cc1c(NCC2CCNCC2)c2ccccc2oc1=O")
"154 to 156 °C"
>>> reading("O=Cc1c(N2CCOCC2)c2ccccc2oc1=O")
"150 to 152 °C"
>>> reading("COc1c(C=O)c(=O)oc2ccccc12")
"118 to 120 °C"
>>> reading("COC(=O)/C(C#N)=C/c1c(N2CCCCC2)c2ccccc2oc1=O")
"192 to 194 °C"

* * *

assayed_system: EGFR kinase (Homo sapiens)
Construct: purchased 40321
Sequence (P00533 25-1210): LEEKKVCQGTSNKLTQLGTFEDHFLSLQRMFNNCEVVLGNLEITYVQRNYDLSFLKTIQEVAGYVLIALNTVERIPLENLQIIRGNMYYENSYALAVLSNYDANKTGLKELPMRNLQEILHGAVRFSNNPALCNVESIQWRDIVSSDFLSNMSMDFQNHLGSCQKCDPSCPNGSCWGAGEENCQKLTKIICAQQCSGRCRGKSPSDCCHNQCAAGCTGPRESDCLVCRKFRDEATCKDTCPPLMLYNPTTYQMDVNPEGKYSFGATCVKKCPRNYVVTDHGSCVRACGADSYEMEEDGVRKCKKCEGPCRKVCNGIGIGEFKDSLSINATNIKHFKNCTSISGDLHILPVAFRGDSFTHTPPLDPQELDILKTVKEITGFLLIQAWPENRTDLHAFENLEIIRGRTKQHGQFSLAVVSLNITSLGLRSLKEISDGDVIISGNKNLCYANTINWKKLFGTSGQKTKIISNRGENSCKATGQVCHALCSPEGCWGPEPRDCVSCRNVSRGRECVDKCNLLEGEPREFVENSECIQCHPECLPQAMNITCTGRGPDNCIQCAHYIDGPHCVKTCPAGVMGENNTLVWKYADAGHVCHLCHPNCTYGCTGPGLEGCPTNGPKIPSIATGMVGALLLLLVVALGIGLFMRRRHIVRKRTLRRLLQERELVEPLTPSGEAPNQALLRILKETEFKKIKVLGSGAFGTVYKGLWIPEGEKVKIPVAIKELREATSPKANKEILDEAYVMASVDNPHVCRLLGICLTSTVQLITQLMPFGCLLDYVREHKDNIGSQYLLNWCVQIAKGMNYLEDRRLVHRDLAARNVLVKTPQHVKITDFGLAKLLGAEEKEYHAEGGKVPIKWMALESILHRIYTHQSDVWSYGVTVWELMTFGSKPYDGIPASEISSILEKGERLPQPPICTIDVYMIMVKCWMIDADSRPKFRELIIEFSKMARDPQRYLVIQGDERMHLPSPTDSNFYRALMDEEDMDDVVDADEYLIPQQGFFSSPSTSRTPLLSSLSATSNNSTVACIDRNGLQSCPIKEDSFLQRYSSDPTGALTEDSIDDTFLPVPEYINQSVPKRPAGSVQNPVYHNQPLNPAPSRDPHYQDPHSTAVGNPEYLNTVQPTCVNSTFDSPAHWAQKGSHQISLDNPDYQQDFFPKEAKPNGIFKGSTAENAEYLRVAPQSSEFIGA
experiment_description: EGFR Kinase Assay Kit, luminescence
Type: biochemical
experimental_setup: IC50 relative to the standard erlotinib
Listing: EGFR Fold to erlotinib of selected compounds
quantity_name: EGFR Fold to erlotinib

>>> reading("N#CC(C#N)=Cc1c(NCC2CCNCC2)c2ccccc2oc1=O")
"1.2 fold"
>>> reading("COC(=O)/C(C#N)=C/c1c(NCC2CCNCC2)c2ccccc2oc1=O")
"2.5 fold"
>>> reading("O=Cc1c(NCC2CCNCC2)c2ccccc2oc1=O")
"3.6 fold"
>>> reading("O=c1oc2ccccc2c(N2CCOCC2)c1[N+](=O)[O-]")
"6.2 fold"
